Tested on: L1210 leukemia ip in BDF1 mice, survival T/C
assayRemarks: NCI In Vivo Anticancer Drug Screen. Data for tumor model L1210 Leukemia (intraperitoneal) in B6D2F1 (BDF1) mice
measurementConditions: endpoint: mean survival time; dose: 100.0 mg/kg/injection; schedule: Q04DX002 (ip); vehicle: saline with Tween-80; higher = longer survival
Toxic doses and inconclusive results are not listed.
quantity: T/C

compound	T/C
CCOC(=O)C(C(=O)OCC)C(=O)c1cccc2c1ccc1ccccc12	95 % of control
O=C1c2ccccc2C(=O)N1CNc1cccc(Cl)c1	102 % of control
c1ccc(C2CC2NC2=NCCO2)cc1 (centres undefined)	93 % of control
O=C(O)C(Br)C(Br)C(=O)Nc1cccc(Cl)c1 (centres undefined)	91 % of control
O=[N+]([O-])C1CC(Cl)CCC1SSC1CCC(Cl)CC1[N+](=O)[O-] (centres undefined)	95 % of control

Summary for this compound, `O=C(O)CNCCN1CC(=O)NC1=S` : T/C is 107 % of control

Form field T/C, entry C=C1C(C(=O)OCC)C1C(=O)OCC (centres undefined) : 103 % of control

# T/C of `C#CC1(NC(=O)NC(C)(C)C)CCCCC1` = 97 % of control

Briefly, T/C measured for `COc1cc(OC)c(-c2nc3ccc(C)cc3c(=O)o2)cc1OC` : 103 % of control

* * *

Quick reference for T/C among some compounds
System: L1210 leukemia ip in BDF1 mice, survival T/C
assayRemarks: NCI In Vivo Anticancer Drug Screen. Data for tumor model L1210 Leukemia (intraperitoneal) in B6D2F1 (BDF1) mice
measurementConditions: endpoint: mean survival time; dose: 400.0 mg/kg/injection; schedule: Q04DX002 (ip); vehicle: saline; higher = longer survival
Toxic doses and inconclusive results are not listed.

Example cases with answers are listed next.
compound	measurementTarget	observedMeasurement
CCCCC#CC(=O)OCC	L1210 leukemia ip in BDF1 mice, survival T/C	112 % of control
CCCCCCCCOC(=O)CC	L1210 leukemia ip in BDF1 mice, survival T/C	100 % of control
CC1CN=C(c2ccc(O)cc2)S1 (centres undefined)	L1210 leukemia ip in BDF1 mice, survival T/C	107 % of control

Field T/C (entry `C=CCc1ccc(OC)c(OC)c1` ) reads 104 % of control

* * *

System: L1210 leukemia ip in BDF1 mice, survival T/C
assayRemarks: NCI In Vivo Anticancer Drug Screen. Data for tumor model L1210 Leukemia (intraperitoneal) in B6D2F1 (BDF1) mice
measurementConditions: endpoint: mean survival time; dose: 50.0 mg/kg/injection; schedule: Q01DX001 (ip); vehicle: carboxymethylcellulose (CMC); higher = longer survival
Method: The antitumor activity of compounds was measured in mice bearing transplantable tumors. Survival or tumor size were measured and the results are expressed as the measurement made in the treated group (T) divided by the measurement made in the vehicle treated control group (C). The tumor model used in this assay is L1210 Leukemia (intraperitoneal) in B6D2F1 (BDF1) mice
Toxic doses and inconclusive results are not listed.
Listing of recorded T/C by entry.

Solved entries (count: 2):
compound	T/C
NC1(C(=O)O)CCCc2ccc(N(CCCl)CCCl)cc21 (stereo unspecified)	123 % of control
O=C(O)/C(=C\c1cc2c(cc1[N+](=O)[O-])OCO2)c1cc2c(cc1Br)OCO2	97 % of control

Per the record, CC(=O)CC(SCCSCCSC(CC(C)=O)c1ccccc1)c1ccccc1 (stereo unspecified) has T/C of 89 % of control

For record OCC1OC(n2cc(Br)c3c(Cl)ncnc32)C(O)C1O (stereo unspecified) the listed T/C is 117 % of control

Briefly, T/C measured for CC(=O)Nc1ccc2c(c1)C(N(C)C)c1ccccc1-2 (stereo unspecified) : 101 % of control

CC(NP1(=O)OCC(C)([N+](=O)[O-])CO1)c1ccccc1 (stereo unspecified) yielded T/C of 97 % of control

* * *

System: L1210 leukemia ip in BDF1 mice, survival T/C
assayRemarks: NCI In Vivo Anticancer Drug Screen. Data for tumor model L1210 Leukemia (intraperitoneal) in B6D2F1 (BDF1) mice
measurementConditions: endpoint: mean survival time; dose: 200.0 mg/kg/injection; schedule: Q04DX003 (ip); vehicle: saline with Tween-80; higher = longer survival
Inconclusive results and toxic doses are left out.
quantity: T/C

compound	quantity	observedMeasurement
O=C1C(Br)=CC(Br)(Br)C=C1Br	T/C	95 % of control
CCCCCCCCC(=O)N(C)OC	T/C	93 % of control
CCOC1Cc2ccccc21 (configuration not stated)	T/C	96 % of control
COc1ccc(NC(=O)CCC(=O)O)cc1	T/C	100 % of control

Entry `COC(=O)c1nc(C(=O)OC)c(C(=O)OC)nc1C(=O)OC` — recorded T/C = 93 % of control

The reported value for `CC(=O)C(Cc1ccc(CC(C(C)=O)C(C)=O)cc1)C(C)=O` in terms of T/C is 91 % of control

T/C recorded for this compound, `O=Cc1[nH]c(=S)[nH]c(=O)c1Cc1ccc([N+](=O)[O-])cc1` , is 92 % of control

* * *

Listed compounds paired with reported T/C
Test system: L1210 leukemia ip in BDF1 mice, survival T/C
assayRemarks: NCI In Vivo Anticancer Drug Screen. Data for tumor model L1210 Leukemia (intraperitoneal) in B6D2F1 (BDF1) mice
measurementConditions: endpoint: mean survival time; dose: 50.0 mg/kg/injection; schedule: Q01DX009 (ip); vehicle: saline with Tween-80; higher = longer survival
Toxic doses and inconclusive results are not listed.

Sample records with T/C:
compound	T/C
CCCCOCN1C(=O)NC(c2ccccc2)(c2ccccc2)C1=O	108 % of control
O=C(COc1ccc(Cl)cc1Cl)Nc1ccccc1F	92 % of control
COc1ccc(/C=N/NC(=O)c2ccc(Cl)cc2)cc1	88 % of control
CC(=O)N(c1ccncc1)c1ccc([N+](=O)[O-])cc1	94 % of control
O=C(C[n+]1ccccc1)N/N=C/c1cccc([N+](=O)[O-])c1	91 % of control
c1ccc(N=N/C(=N/Nc2ccccc2)c2ccccc2)cc1	90 % of control
CCOC(=O)c1cc(=O)ss1	100 % of control
CN(C)C(=S)SCCC(N)C(=O)O (stereo not drawn)	90 % of control

Record `C#CCSP(=O)(O)O` , field T/C: 103 % of control

Query `Cc1cc(NC(=O)c2ccccc2)c(Cl)cc1N` yields T/C of 105 % of control

The value of T/C measured for the compound `CCN(CC)CC(Cl)CN(CC)CC` turned out to be 104 % of control

Lab note: `CC(C)=CCc1cccc(C)c1` gave T/C of 94 % of control

In plain terms, CC(C)C/C=C/C1CCCCC1 (tested in a mixture with another compound) has a documented T/C of 101 % of control

* * *

Reported T/C values are given for each entry in this list.
Test system: L1210 leukemia ip in BDF1 mice, survival T/C
assayRemarks: NCI In Vivo Anticancer Drug Screen. Data for tumor model L1210 Leukemia (intraperitoneal) in B6D2F1 (BDF1) mice
measurementConditions: endpoint: mean survival time; dose: 6.25 mg/kg/injection; schedule: Q01DX009 (ip); vehicle: Klucel (hydroxypropylcellulose) (HPC); higher = longer survival
Inconclusive results and toxic doses are left out.

Param item: `CC(C)(C)OC(=O)NNC(=O)c1ccc([N+](=O)[O-])cc1` ; param system: L1210 leukemia ip in BDF1 mice, survival T/C; output T/C: 124 % of control

Entry `Oc1ccccc1C=NCC[N-]CCN=Cc1ccccc1O.[Cu+]` under L1210 leukemia ip in BDF1 mice, survival T/C had T/C of 94 % of control

The reported T/C value, L1210 leukemia ip in BDF1 mice, survival T/C, for `Nc1[nH]c(=S)ncc1-c1ccccc1Cl` reads 94 % of control

Bench note, L1210 leukemia ip in BDF1 mice, survival T/C: O=S(c1ccccc1)c1c(Cl)c(Cl)nc(Cl)c1Cl (stereo not given) , T/C reads 104 % of control

Simply: `CCCCCC[Se][Se]CCCCCC` , L1210 leukemia ip in BDF1 mice, survival T/C, T/C = 96 % of control

* * *

Test system: L1210 leukemia ip in BDF1 mice, survival T/C
assayRemarks: NCI In Vivo Anticancer Drug Screen. Data for tumor model L1210 Leukemia (intraperitoneal) in B6D2F1 (BDF1) mice
measurementConditions: endpoint: mean survival time; dose: 200.0 mg/kg/injection; schedule: Q01DX009 (ip); vehicle: saline with Tween-80; higher = longer survival
Inconclusive results and toxic doses are left out.
quantity: T/C

Consider the worked cases shown below.
compound	T/C
c1ccc2cc3c(cc2c1)Nc1cc2ccccc2cc1N3	93 % of control
O=C1OC(c2cccc([N+](=O)[O-])c2)=N/C1=C\c1ccccc1	102 % of control
Cc1cncc(CC(O)(C(F)(F)F)C(F)(F)F)n1	103 % of control
IC12CC3CC(CC(C3)C1)C2	87 % of control
CC(=O)OC(c1ccccc1)C(Cl)(Cl)Cl (centres undefined)	104 % of control

Lab note: `O=C(O)c1ccccc1CCl` gave T/C of 108 % of control

Lab note: measured T/C of CCSC(=O)N1c2ccc(OC)cc2C=CC1C#N (centres undefined) was 124 % of control

Value of measured T/C for the entry `Cc1ccc(C)c(-n2nnc3ccccc3c2=O)c1` : 92 % of control

For CC(C)CC1NC(=O)C(Cc2ccc(OCc3ccccc3)cc2)NC1=O (centres undefined) the compound record lists T/C as 96 % of control

# T/C of COc1ccc(NC(=O)CC(C)C(=O)O)cc1 (centres undefined) = 90 % of control

Data provenance is PubChem BioAssay AID248.
